Listed next: entries and their corresponding pIC50.
# System Name: FLK-1 receptor (Mus musculus, UniProt P35918)
# Sequence (P35918 20-1345): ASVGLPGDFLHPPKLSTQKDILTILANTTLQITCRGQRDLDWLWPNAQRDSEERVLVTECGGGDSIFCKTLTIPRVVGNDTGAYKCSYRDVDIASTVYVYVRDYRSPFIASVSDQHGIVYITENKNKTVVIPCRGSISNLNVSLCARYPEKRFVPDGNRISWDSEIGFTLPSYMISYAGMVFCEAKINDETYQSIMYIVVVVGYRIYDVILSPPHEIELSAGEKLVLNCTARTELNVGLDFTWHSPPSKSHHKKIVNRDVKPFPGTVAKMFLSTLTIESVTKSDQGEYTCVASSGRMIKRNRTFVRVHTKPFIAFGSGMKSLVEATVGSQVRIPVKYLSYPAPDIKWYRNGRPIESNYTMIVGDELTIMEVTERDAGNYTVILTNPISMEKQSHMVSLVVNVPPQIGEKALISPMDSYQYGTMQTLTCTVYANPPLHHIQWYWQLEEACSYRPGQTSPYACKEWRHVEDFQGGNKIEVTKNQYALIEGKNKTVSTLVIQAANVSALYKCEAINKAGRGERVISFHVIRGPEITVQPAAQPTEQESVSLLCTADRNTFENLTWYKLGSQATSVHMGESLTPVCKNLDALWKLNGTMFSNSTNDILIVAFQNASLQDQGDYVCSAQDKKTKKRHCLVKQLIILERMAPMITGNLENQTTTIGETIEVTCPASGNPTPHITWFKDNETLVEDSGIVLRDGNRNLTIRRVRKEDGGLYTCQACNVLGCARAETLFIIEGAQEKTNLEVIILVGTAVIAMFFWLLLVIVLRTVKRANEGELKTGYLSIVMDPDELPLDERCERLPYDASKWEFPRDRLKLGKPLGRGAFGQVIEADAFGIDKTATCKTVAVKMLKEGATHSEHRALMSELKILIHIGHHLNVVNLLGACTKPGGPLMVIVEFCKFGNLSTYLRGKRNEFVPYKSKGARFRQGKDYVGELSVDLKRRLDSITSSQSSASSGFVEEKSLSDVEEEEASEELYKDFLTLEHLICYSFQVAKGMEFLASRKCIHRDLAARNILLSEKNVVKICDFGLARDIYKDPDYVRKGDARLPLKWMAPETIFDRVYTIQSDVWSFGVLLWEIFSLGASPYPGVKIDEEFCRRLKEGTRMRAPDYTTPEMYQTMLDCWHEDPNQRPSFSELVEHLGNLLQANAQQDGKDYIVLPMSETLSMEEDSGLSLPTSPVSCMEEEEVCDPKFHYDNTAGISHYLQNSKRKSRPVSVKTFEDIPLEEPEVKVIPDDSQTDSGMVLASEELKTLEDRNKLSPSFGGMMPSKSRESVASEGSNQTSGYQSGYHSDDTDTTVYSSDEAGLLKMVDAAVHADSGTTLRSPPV
# Assay Text: ELISA assay measuring the kinase activity of the FLK-1 receptor in cells engineered to express FLK-1
# Applied Conditions: NIH3T3 C7#3 FLK-1 expressing cells, VEGF stimulation, phosphotyrosine ELISA
# Experimental: An ELISA assay was conducted to measure the kinase activity of the FLK-1 receptor and more specifically, the inhibition or activation of TK activity on the FLK-1 receptor. Specifically, the following assay was conducted to measure kinase activity of the FLK-1 receptor in cells genetically engineered to express FLK-1. […] 25. […] Remove bubbles with slow stream of air and read the ELISA plate in an ELISA plate reader at 410 nm. The IC50 values were measured for several of the compounds of the invention.
// returns pIC50 (minus log10 of molar concentration), number only

Here's what some known entries look like.
- Molecule: "Cc1c[nH]c(C=C2C(=O)Nc3cc(Cl)ccc32)c1CCC(=O)O [IN-030]"
  Outcome Measure: "pIC50"
  Recorded Number: 6.72
- Molecule: "NC(=O)CCc1c(C=C2C(=O)Nc3ccccc32)[nH]c2c1CCCC2 [IN-010]"
  Outcome Measure: "pIC50"
  Recorded Number: 6.89
- Molecule: "Cc1ccc2c(c1)C(=Cc1[nH]c3c(c1CCC(=O)O)CCCC3)C(=O)N2 [IN-005]"
  Outcome Measure: "pIC50"
  Recorded Number: 7.20

Q) Given O=C(O)CCc1c(C=C2C(=O)Nc3ccc(Br)cc32)[nH]c2c1CCCC2 [IN-003] , state its recorded pIC50.
A) 7.54

* * *

# System: HUV-EC-C cells; VEGF
# Assay Text: HUVEC-VEGF 3H-thymidine incorporation assay
# Type: cell-based, human
# Applied Conditions: Homo sapiens
Outcome Measure: pIC50
// returns pIC50 (minus log10 of molar concentration), number only

- Compound Smiles: "Cc1c[nH]c(C=C2C(=O)Nc3ccc(Br)cc32)c1CCC(=O)O"
  pIC50: 7.40
- Compound Smiles: "O=C(O)CCc1c(C=C2C(=O)Nc3ccc(Br)cc32)[nH]c2c1CCCC2"
  pIC50: 9.52
- Compound Smiles: "COc1ccc2c(c1)NC(=O)C2=Cc1[nH]c2c(c1CCC(=O)O)CCCC2"
  pIC50: 7.70

Q) Provide the documented pIC50 with HUV-EC-C cells; VEGF as the system for `COc1ccc2c(c1)NC(=O)C2=Cc1[nH]cc(C)c1CCC(=O)O`
A) 6.21

* * *

# System Name: PDGF receptor (Homo sapiens)
# Sequence (P09619 33-1106): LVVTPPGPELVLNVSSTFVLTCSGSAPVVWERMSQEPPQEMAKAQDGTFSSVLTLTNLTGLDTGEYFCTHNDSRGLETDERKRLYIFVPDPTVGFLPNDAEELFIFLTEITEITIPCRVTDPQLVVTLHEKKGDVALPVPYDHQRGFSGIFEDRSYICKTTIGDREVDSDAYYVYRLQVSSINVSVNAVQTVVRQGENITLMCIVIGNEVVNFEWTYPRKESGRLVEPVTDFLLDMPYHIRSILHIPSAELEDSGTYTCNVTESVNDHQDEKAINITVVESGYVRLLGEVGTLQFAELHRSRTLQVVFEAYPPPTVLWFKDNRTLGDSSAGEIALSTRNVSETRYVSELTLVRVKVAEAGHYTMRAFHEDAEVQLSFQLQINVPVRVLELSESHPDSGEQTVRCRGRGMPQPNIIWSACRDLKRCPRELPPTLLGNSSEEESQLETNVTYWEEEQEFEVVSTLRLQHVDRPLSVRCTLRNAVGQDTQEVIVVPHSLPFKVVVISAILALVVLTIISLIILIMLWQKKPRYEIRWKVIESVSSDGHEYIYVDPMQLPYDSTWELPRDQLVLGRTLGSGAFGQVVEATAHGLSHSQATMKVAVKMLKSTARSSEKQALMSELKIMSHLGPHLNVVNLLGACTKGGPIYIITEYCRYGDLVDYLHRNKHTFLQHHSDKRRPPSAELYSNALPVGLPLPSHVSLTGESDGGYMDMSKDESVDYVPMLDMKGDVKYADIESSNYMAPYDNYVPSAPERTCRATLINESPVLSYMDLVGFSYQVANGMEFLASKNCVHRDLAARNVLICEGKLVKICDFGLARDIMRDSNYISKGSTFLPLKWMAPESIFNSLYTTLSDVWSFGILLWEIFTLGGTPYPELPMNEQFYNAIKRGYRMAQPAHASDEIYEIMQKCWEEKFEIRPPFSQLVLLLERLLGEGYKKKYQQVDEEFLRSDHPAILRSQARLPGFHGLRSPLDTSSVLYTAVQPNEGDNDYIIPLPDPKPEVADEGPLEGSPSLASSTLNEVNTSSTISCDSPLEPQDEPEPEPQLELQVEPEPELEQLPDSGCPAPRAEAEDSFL
# Assay Text: ELISA assay measuring the kinase activity of the PDGF receptor in U1242 cells
# Applied Conditions: ligand stimulation, phosphotyrosine ELISA
Outcome Measure: pIC50
// returns pIC50 (minus log10 of molar concentration), number only

Q) Given O=C(O)CCc1c(C=C2C(=O)Nc3ccc(Cl)cc32)[nH]c2c1CCCC2 [IN-002] , state its recorded pIC50.
A) 7.30

* * *

# System Name: FLK-1 receptor (Mus musculus)
# Assay Text: ELISA assay measuring the kinase activity of the FLK-1 receptor in cells engineered to express FLK-1
# Applied Conditions: NIH3T3 C7#3 FLK-1 expressing cells, VEGF stimulation, phosphotyrosine ELISA
# Procedure: An ELISA assay was conducted to measure the kinase activity of the FLK-1 receptor and more specifically, the inhibition or activation of TK activity on the FLK-1 receptor. Specifically, the following assay was conducted to measure kinase activity of the FLK-1 receptor in cells genetically engineered to express FLK-1. […] 25. […] Remove bubbles with slow stream of air and read the ELISA plate in an ELISA plate reader at 410 nm. The IC50 values were measured for several of the compounds of the invention.
# strict inequality: IC50 < 0.03 µM yields label 1, everything else yields label 0

Here are 5 compounds together with their reported answers.
- Compound Smiles: "O=C(O)CCc1c(C=C2C(=O)Nc3cc(Cl)ccc32)[nH]c2c1CCCC2"
  Group Label: "label 0"
- Compound Smiles: "Cc1cccc2c1C(=Cc1[nH]c3c(c1CCC(=O)O)CCCC3)C(=O)N2"
  Group Label: "label 1"
- Compound Smiles: "COc1ccc2c(c1)NC(=O)C2=Cc1[nH]cc(C)c1CCC(=O)O"
  Group Label: "label 0"
- Compound Smiles: "O=C(O)CCc1c(C=C2C(=O)Nc3ccc(Cl)cc32)[nH]c2c1CCCC2"
  Group Label: "label 1"
- Compound Smiles: "Cc1c[nH]c(C=C2C(=O)Nc3ccc(Br)cc32)c1CCC(=O)O"
  Group Label: "label 0"

Q) Is IC50 strictly under 0.03 µM for the entry `Cc1c[nH]c(C=C2C(=O)Nc3ccc(Cl)cc32)c1CCC(=O)O` ?
A) label 0

Q) Is IC50 strictly under 0.03 µM for the entry `Cc1c[nH]c(C=C2C(=O)Nc3ccccc32)c1CCC(=O)O` ?
A) label 0

* * *

# System Name: Myc-GyrB-FGFR fusion protein (Homo sapiens, UniProt P11362)
# Sequence (P11362 398-822): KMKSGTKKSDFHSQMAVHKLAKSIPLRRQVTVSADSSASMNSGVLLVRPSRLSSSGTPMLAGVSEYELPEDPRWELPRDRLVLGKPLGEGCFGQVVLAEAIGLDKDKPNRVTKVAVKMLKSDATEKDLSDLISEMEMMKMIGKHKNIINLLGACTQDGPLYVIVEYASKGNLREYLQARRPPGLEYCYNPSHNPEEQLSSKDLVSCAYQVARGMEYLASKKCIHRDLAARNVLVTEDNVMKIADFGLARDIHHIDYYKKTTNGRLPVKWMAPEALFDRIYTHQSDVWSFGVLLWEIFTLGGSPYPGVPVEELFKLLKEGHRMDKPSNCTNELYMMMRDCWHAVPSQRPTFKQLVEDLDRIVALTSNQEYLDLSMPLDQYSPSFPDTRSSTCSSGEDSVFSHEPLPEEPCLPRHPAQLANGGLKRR
# Assay Text: ELISA assay measuring the kinase activity of the FGF receptor (Myc-GyrB-FGFR from COS/FGFR cell lysate)
# Applied Conditions: 7 μM ATP
Outcome Measure: pIC50
// returns pIC50 (minus log10 of molar concentration), number only

- Compound Smiles: "O=C(O)CCc1c(C=C2C(=O)Nc3ccc(Cl)cc32)[nH]c2c1CCCC2"
  pIC50: 6.43

Please examine the following record next.
Q) Given `O=C(O)CCc1ccccc1/C=C1/C(=O)Nc2ccccc21` , state its recorded pIC50.
A) 4.52

* * *

# Test system: EGF-induced BrdU incorporation
# Assay Text: EGF-induced BrdU incorporation assay
# Format: cell-based
# Applied Conditions: EGF-induced; read-out: EGF-Induced BrdU Incorp. IC50
Outcome Measure: IC50 (µM)
Just the number please, in µM, no unit attached.

- Molecule: "Cc1c[nH]c(C=C2C(=O)Nc3cccc(C)c32)c1CCC(=O)O [IN-029]"
  IC50 [µM]: 43.5

Please examine the following record next.
Q) Given O=C(O)CCc1c(C=C2C(=O)Nc3ccc(Cl)cc32)[nH]c2c1CCCC2 [IN-002] , state its recorded IC50.
A) 83.5

* * *

# Tested on: HUV-EC-C cells; VEGF
# Assay Text: HUVEC-VEGF 3H-thymidine incorporation assay
# Format: cell-based, human
# Applied Conditions: Homo sapiens
# Protocol: The following protocol is used to measure a compound's activity against VEGF and aFGF, all of which are expressed by HUVEC cells. 1. […] 1. Thaw plates and harvest with a 96-well plate harvester (Tomtec Harvester 96®) onto filter mats (Wallac; catalogue no. 1205-401); read counts on a Wallac Betaplate™ liquid scintillation counter. The IC50 values were measured for several of the compounds of the invention.
Listed next: entries and their corresponding IC50.
Just the number please, in nM, no unit attached.

Here's what some known entries look like.
- Molecule: "Cc1ccc2c(c1)C(=Cc1[nH]c3c(c1CCC(=O)O)CCCC3)C(=O)N2 [IN-005]"
  System Name: "HUV-EC-C cells; VEGF"
  Outcome Measure: "IC50"
  Recorded Number: 1
- Molecule: "CN(C)CCCc1c(C=C2C(=O)Nc3ccccc32)[nH]c2c1CCCC2 [IN-009]"
  System Name: "HUV-EC-C cells; VEGF"
  Outcome Measure: "IC50"
  Recorded Number: 290
- Molecule: "O=C(O)CCc1c(C=C2C(=O)Nc3ccccc32)[nH]c2c1CCCC2 [IN-001]"
  System Name: "HUV-EC-C cells; VEGF"
  Outcome Measure: "IC50"
  Recorded Number: 1.9
- Molecule: "O=C1Nc2ccccc2C1=Cc1[nH]c2c(c1CCC(=O)N1CCOCC1)CCCC2 [IN-011]"
  System Name: "HUV-EC-C cells; VEGF"
  Outcome Measure: "IC50"
  Recorded Number: 220
- Molecule: "Cc1cccc2c1C(=Cc1[nH]c3c(c1CCC(=O)O)CCCC3)C(=O)N2 [IN-004]"
  System Name: "HUV-EC-C cells; VEGF"
  Outcome Measure: "IC50"
  Recorded Number: 0.94

Q) Given Cc1c[nH]c(C=C2C(=O)Nc3cc(Cl)ccc32)c1CCC(=O)O [IN-030] , state its recorded IC50.
A) 16

* * *

# Test system: HUV-EC-C cells; VEGF
# Assay Text: HUVEC-VEGF 3H-thymidine incorporation assay
# Type: cell-based, human
# Applied Conditions: Homo sapiens
pIC50: −log10 of the molar value.
Outcome Measure: pIC50

- Compound Smiles: "O=C(CCc1c(C=C2C(=O)Nc3ccccc32)[nH]c2c1CCCC2)NCCN1CCOCC1"
  Outcome Measure: "pIC50"
  Result: "> 7.52"

Q) Given `NC(=O)CCc1c(C=C2C(=O)Nc3ccccc32)[nH]c2c1CCCC2` , state its recorded pIC50.
A) > 7.52

Q) Given `CN(C)C(=O)CCc1c(C=C2C(=O)Nc3ccccc32)[nH]c2c1CCCC2` , state its recorded pIC50.
A) > 8.52
